Just for reference, PubChem BioAssay is where these values come from.

test: plasmodial surface anion channel blockers, osmotic lysis – cell-based, P. falciparum Indochina, OD700, 18 h, primary screen (AID 1157); settings: P. falciparum Indochina infected erythrocytes, osmotic lysis OD700, 18 h; higher = more signal, called active from +8 up or from −8 down
Please enter Met where z-score is greater than or equal to 0.5, and Not met where it is lower.

- molecule: "CCCNC(=O)[C@@]1(C)c2ccccc2C(=O)N(Cc2cc(F)cc(C(F)(F)F)c2)[C@H]1c1ccc(CO)cc1"
  group.label: "Met"
- molecule: "COc1ccc([Si](C)(C)[C@H]2[C@H](CCO)O[C@@]3(C(=O)N(Cc4ccccc4)c4ccc(N5C(=O)COc6ccccc65)cc43)[C@@H]2C)cc1"
  group.label: "Met"
- molecule: "COc1ccccc1CN1C(=O)c2ccccc2[C@](Cc2ccccc2I)(C(=O)NC2CC2)[C@@H]1c1ccc(CO)cc1"
  group.label: "Met"
- molecule: "CC(C)N1C(=O)c2ccccc2[C@](C)(C(=O)NC2CC2)[C@@H]1c1ccc(CO)cc1"
  group.label: "Not met"
- molecule: "O=C(NCC(F)(F)F)[C@@H]1c2ccccc2C(=O)N(Cc2ccccc2)[C@H]1c1ccc(CO)cc1"
  group.label: "Not met"
- molecule: "C[n+]1ccc2ccc(O)cc2c1"
  group.label: "Not met"
- molecule: "C=CCC(OC(C)=O)[C@@H]1[C@@H](N(Cc2ccc(-c3ccccc3)cc2)C(=O)c2ccc(C)cc2)c2cc(OCCCO)ccc2N1C(=O)c1ccc2ccccc2n1 (stereo partly drawn)"
  group.label: "Not met"
- molecule: "CCCCN1CC=CC23O[C@@H]4C=CCCOC(=O)C4[C@H]2C(=O)N(CCCO)[C@@H]3C1=O (stereo partly drawn)"
  group.label: "Not met"

###

test system: XIP peptide (Xip251-270) binding; assay: XIP fragment 251-270 binding compounds – biochemical, small-molecule microarray, fluorescence 635/667 nm, 0.1 µg/mL protein, primary screen (AID 1182); conditions: fluorescent protein binding, 635 nm, higher = more signal, called active from +8 up or from −8 down
Please enter Met where composite z-score is greater than or equal to 0.4, and Not met where it is lower.

- compound: "CN(C)CCCCNC(=O)[C@@H]1C[C@@H]2C(=O)N[C@@H](CCCCN)C(=O)N2[C@@H]1c1cccc(OCCO)c1"
  group.label: "Not met"
- compound: "COc1ccccc1CN1C(=O)c2ccccc2[C@](Cc2ccccc2I)(C(=O)NC2CC2)[C@@H]1c1ccc(CO)cc1"
  group.label: "Not met"
- compound: "C[N+](C)(C)CCCCNC(=O)[C@H]1C[C@H]2C(=O)N3CCC[C@H]3C(=O)N2[C@H]1c1ccc(O)cc1"
  group.label: "Met"
- compound: "Cn1c2c(c3ccccc31)C(=O)C1NC2C=CC1(C)C(=O)OCc1ccccc1 (stereo not given)"
  group.label: "Not met"
- compound: "Cc1ccc(S[C@]2(C(=O)NCC(F)(F)F)CC(=O)N(C3Cc4ccccc4C3)[C@@H]2c2ccc(CO)cc2I)cc1"
  group.label: "Met"
- compound: "COc1ccc(C(=O)Nc2cccc(CN3C(=O)[C@@]4(O[C@@H](CCn5cc([C@H](O)c6ccccc6)nn5)[C@H]([Si](C)(C)c5ccc(OC)cc5)[C@H]4C)c4ccccc43)c2)cc1"
  group.label: "Not met"
- compound: "O[C@@H](Cc1ccccc1)[C@@H](/C=C/c1ccccc1)NCc1ccccc1Br"
  group.label: "Not met"
- compound: "C=CCNC(=O)[C@@H]1[C@H]2C(=O)O[C@H](c3ccccc3)[C@H](c3ccccc3)N2[C@H](c2ccccc2OCCO)[C@@]12C(=O)N(C(=O)OCCOC)c1ccc(C#CCC(C(=O)OC)C(=O)OC)cc12"
  group.label: "Met"
- compound: "CN(C)CCCC[C@@H]1NC(=O)[C@@H]2C[C@H](C(=O)NCCCCCN)[C@H](c3ccc(O)cc3)N2C1=O"
  group.label: "Met"
- compound: "CC(=O)NCCCC[C@@H]1NC(=O)[C@@H]2C[C@H](C(=O)NCc3ccc(F)cc3)[C@H](c3ccc(O)cc3)N2C1=O"
  group.label: "Met"
- compound: "O=S(=O)(NCCCO)c1ccc(Br)cc1"
  group.label: "Not met"
- compound: "O=C1OCC=C[C@H]2OC34C=CCN(c5ccc(Cl)cc5)C(=O)[C@H]3N(CCCO)C(=O)[C@@H]4[C@@H]12 (stereo not given in full)"
  group.label: "Met"
- compound: "CCN(CC)c1ccc(N2CC=CC34O[C@@H]5C=CCOC(=O)[C@@H]5[C@H]3C(=O)N(CCCCCO)[C@@H]4C2=O)cc1 (stereo not given in full)"
  group.label: "Met"

###

Recorded composite z-score, one value per entry.
assay: binders from COS7 lysate, DM2A8 probe, primary screen, torsin A project, cell lysate, small-molecule microarray, fluorescence 635/667 (AID 1065); conditions: higher = more signal, COS7 lysate expressing mutant human TOR1A

- compound: "COc1ccc(CCNC(=O)[C@@]2(C)c3ccccc3C(=O)N(Cc3ccccc3)[C@H]2c2ccc(CO)cc2)cc1"
  composite z-score: 1.25
- compound: "CCCC[C@H]1OB(O)C[C@H]2C1=C(COc1ccccc1)C[C@H]1C(=O)N(Cc3ccccc3)C(=O)[C@H]12"
  composite z-score: -0.413
- compound: "C=C(C)[C@@H]1CC=C(C(O)C2C=CC3C(=O)N(Cc4ccccc4)C(=O)C3N2n2cnnc2)CC1 (some centres undefined)"
  composite z-score: 0.271
- compound: "COC(=O)[C@@]1(Cc2ccc(F)cc2)[C@H]2c3cc(C(=O)N(C)C)n(Cc4ccccn4)c3C[C@H]2CN1C(=O)c1ccccc1"
  composite z-score: 0.55

###

molecular target: Neurogenic locus notch homolog protein 2 (Homo sapiens); test: small molecules binding Notch2 protein – biochemical, small-molecule microarray, 635 nm fluorescence, stem cell growth factors, primary screen (AID 1073); conditions: higher = more signal
Please enter YES where composite z-score is greater than or equal to 0.02, and NO where it is lower.

- compound: "COCCOC(=O)N1C(=O)[C@@]2(c3ccccc31)[C@H](C(=O)N1CCCCCCC1)[C@H]1C(=O)O[C@H](c3ccccc3)[C@H](c3ccccc3)N1[C@@H]2c1ccccc1OCCO"
  group.label: "YES"
- compound: "Cc1ccc(S[C@]2(C(=O)NCCCN(C)C)CC(=O)N(C(C)C)[C@@H]2c2ccc(CO)cc2I)cc1"
  group.label: "NO"
- compound: "C=CCC(OC(C)=O)[C@@H]1[C@@H](N(Cc2cc3ccccc3o2)C(=O)c2cccc3ccccc23)c2cc(OCCCO)ccc2N1C(=O)Cc1ccc(OC)cc1 (stereo not given in full)"
  group.label: "YES"
- compound: "COCCOC(=O)N1C(=O)[C@@]2(c3cc(C#CC4=CCCCC4)ccc31)[C@H](c1ccc(OCCO)cc1)N1[C@H](c3ccccc3)[C@H](c3ccccc3)OC(=O)[C@H]1[C@@H]2C(=O)Nc1nc2ccccc2s1"
  group.label: "YES"
- compound: "C[C@H]1C2[C@H](Cc3ccccc3)NC(=O)[C@]23C(=O)N[C@H](Cc2ccccc2)C(=O)N[C@H](Cc2ccccc2)C(=O)NC/C=C/CCC/C=C/C3[C@@H]2O[C@]12C (stereo not given in full)"
  group.label: "NO"
- compound: "Cc1ccc(F)cc1S(=O)(=O)N[C@@H]1CCN(Cc2ccc(C(F)(F)F)cc2)C1"
  group.label: "NO"
- compound: "Cc1ccc(S[C@]2(C(=O)NCC(C)C)CC(=O)N(Cc3ccccc3)[C@@H]2c2ccc(CO)cc2)cc1"
  group.label: "NO"
- compound: "COc1cc2c(cc1O)C(c1ccc(CN3CCCC3)cc1)N(Cc1sc3ccccc3c1Cl)CC2 (stereo not given)"
  group.label: "YES"
- compound: "O=C(NCc1ccccc1)[C@@H]1c2ccccc2C(=O)N(C2CCCCC2)[C@H]1c1ccc(CO)cc1"
  group.label: "NO"
- compound: "C=CCC(OC(C)=O)[C@@H]1[C@@H](N(Cc2cc3ccccc3o2)C(=O)c2cccc3ccccc23)c2cc(OCCCO)ccc2N1C(=O)Cc1ccc2ccccc2c1 (stereo not given in full)"
  group.label: "NO"
- compound: "O[C@@H](Cc1ccccc1)[C@@H](/C=C/c1ccccc1)NCc1ccccc1Br"
  group.label: "NO"
- compound: "COc1ccc(C(O)C2C=CC3C(=O)N(c4ccccc4)C(=O)C3N2Nc2ccccc2)c2ccccc12 (stereo not given)"
  group.label: "YES"
- compound: "CCCNC(=O)[C@@]1(C)c2ccccc2C(=O)N(C(C)C)[C@H]1c1ccc(CO)cc1"
  group.label: "NO"
- compound: "O=C1NC(=O)C2C1C=CC(C(O)c1cccs1)N2Nc1ccccn1 (stereo not given)"
  group.label: "YES"
- compound: "COC(=O)c1c2oc(c1C(=O)OC)C(=O)N[C@H](Cc1ccccc1)Cn1nncc1C1(CCCCC1)NC(=O)N[C@H](CO)CC2"
  group.label: "NO"
